B1: CPEB3 Ribozyme (parent)
chain: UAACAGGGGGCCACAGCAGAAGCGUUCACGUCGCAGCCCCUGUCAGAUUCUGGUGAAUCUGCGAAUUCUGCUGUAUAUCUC

Variants of: B1
Assay Procedure: self-cleavage, relative activity (ratio to wild type); higher = more cleavage; in vitro, sequencing
Readout: self-cleavage
No unit in the answer, only the number.

Mutant Id	self-cleavage
A57G U60A	0.4
A3U A5U	1.18
A3C A56G	1.12
G6A U69A	0.32
G9C	0.24

The measured self-cleavage associated with C29U A75U reads 0.72

The measured self-cleavage associated with A28G C40G reads 0.22

The measured self-cleavage associated with A45G U49C reads 0.27

The measured self-cleavage associated with U49A G55A reads 0.78

The measured self-cleavage associated with C23U U51C reads 0.07

The measured self-cleavage associated with A45G U69G reads 0.32

The measured self-cleavage associated with A47G U54A reads 1.08

The measured self-cleavage associated with G19A C62U reads 0.36
